# target: TRIM25 CC-PRY/SPRY (Homo sapiens, UniProt Q14258 189-630)
# Sequence (Q14258 189-630): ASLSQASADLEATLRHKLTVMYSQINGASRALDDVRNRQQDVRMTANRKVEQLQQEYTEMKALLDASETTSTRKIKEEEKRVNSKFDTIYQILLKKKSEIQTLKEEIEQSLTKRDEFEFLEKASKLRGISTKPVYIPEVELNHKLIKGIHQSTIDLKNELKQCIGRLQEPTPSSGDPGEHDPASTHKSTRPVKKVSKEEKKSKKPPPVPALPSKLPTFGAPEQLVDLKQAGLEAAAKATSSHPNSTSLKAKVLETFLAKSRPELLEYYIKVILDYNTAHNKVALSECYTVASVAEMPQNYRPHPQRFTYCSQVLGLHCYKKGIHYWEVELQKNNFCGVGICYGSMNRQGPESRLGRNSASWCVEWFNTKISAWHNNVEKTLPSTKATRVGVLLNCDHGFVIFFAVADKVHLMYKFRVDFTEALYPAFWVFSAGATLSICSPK
# procedureText: ITC; KD1 of two sites, mean of replicates 0.015;0.016;0.011; ITC: 20 mM MES pH 6.5, 75 mM NaCl, 0.5 mM TCEP, 20 C; protein NMR: 20 mM sodium phosphate pH 6.5, 150 mM NaCl, 2 mM TCEP, 293 K
# testConditions: protein: recombinant; tags: His-Trx, cleaved (3C); chain copies: 2; hairpin with bulge
recordedEndpoint: pKd
Numbers only, as −log10 of the molar value.

[ask] What measured pKd goes with GCAGGUCGGAUUAAGCCAUAGUACGGGAAAAACUAUGCUACCUG (structured_RNA) [DENV-SL] ?
[reply] 7.85
